So I've got a bunch of compounds here, and I need their inhibition values.
tgt: Maternal embryonic leucine zipper kinase (Homo sapiens) (UniProt Q14680)
Sequence (Q14680 whole entry, looked up): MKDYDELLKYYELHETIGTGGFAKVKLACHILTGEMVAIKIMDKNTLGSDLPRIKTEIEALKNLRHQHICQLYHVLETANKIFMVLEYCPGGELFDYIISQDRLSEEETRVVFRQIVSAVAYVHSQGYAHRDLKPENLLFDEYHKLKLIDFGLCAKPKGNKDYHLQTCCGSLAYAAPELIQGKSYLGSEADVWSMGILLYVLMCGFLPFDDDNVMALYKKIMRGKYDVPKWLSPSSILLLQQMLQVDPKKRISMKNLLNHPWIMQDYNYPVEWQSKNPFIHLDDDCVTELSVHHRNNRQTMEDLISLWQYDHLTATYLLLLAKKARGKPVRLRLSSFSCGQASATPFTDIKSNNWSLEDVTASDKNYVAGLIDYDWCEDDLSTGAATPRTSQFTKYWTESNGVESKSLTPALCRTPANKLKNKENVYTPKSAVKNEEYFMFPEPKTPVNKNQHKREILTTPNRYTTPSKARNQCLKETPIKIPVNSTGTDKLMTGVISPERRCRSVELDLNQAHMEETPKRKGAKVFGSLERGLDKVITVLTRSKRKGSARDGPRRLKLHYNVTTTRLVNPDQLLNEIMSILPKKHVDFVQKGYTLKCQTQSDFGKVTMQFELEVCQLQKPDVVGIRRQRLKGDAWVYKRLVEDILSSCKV
particulars: at 1 µM
Respond with the figure and its unit, in that order.

// below: answered compounds
O=C(O[C@H]1CN[C@H](C#Cc2cc3ncnc(Nc4ccc(Cc5ccccc5)cc4)c3s2)C1)N1CCOCC1: -1.31%
COc1ccc(-c2cc3c(N)ncnc3o2)cc1: -1.79%
CNC(=O)c1cncc(/C=C/c2ccccc2Cl)c1: -3.52%

Please state, for each entry, its recorded inhibition.
1. COc1ccc2c(-c3ccnc(Nc4cccc(OC(F)(F)F)c4)n3)cnn2n1
2. FC(F)(F)c1cccc(-c2nn3ncccc3c2-c2ccnc(Nc3ccc4c(c3)OCCO4)n2)c1
3. COc1ccc(-c2oc3ncnc(N)c3c2-c2ccc(NC(=O)Nc3cc(C(F)(F)F)ccc3F)cc2)cc1
4. CCn1c(-c2nonc2N)nc2cnc(Oc3cccc(NC(=O)c4ccc(N(C)C)cc4)c3)cc21
5. [O-][S+]1CCN(Cc2ccc(-c3ccc4ncnc(Nc5ccc(OCc6cccc(F)c6)c(Cl)c5)c4c3)o2)CC1
6. Fc1ccc(-c2cc(-c3c[nH]nc3-c3ccccn3)ccn2)cc1

Data returned:
1: 11.1%; 2: 4.99%; 3: -9.28%; 4: 44.2%; 5: 5.89%; 6: 7.4%

====

Task for the reader: assign each of the following compounds its reported inhibition.
tgt: Inhibitor of nuclear factor kappa-B kinase subunit alpha (Homo sapiens) (UniProt O15111)
Sequence (O15111 whole entry): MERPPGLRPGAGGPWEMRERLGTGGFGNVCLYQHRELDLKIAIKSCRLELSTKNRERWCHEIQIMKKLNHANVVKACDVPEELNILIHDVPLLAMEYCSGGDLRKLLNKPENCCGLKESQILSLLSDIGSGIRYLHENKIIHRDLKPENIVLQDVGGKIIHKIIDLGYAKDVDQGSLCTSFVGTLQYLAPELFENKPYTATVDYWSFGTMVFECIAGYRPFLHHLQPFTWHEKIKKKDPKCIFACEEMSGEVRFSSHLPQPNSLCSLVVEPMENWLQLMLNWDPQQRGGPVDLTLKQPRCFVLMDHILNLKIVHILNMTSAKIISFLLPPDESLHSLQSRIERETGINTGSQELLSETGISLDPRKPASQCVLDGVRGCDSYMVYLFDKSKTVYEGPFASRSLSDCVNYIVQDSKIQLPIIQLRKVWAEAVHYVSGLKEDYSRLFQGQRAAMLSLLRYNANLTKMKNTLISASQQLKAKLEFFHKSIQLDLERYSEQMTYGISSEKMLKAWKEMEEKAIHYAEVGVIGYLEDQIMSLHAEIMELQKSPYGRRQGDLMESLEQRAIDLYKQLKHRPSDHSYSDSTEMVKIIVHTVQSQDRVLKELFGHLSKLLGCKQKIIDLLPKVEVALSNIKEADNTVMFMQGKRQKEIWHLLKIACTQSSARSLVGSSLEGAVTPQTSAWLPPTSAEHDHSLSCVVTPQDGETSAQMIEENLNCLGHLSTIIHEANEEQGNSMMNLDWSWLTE
particulars: at 1 µM
Give bare numbers, in %.

// solved cases for inhibition follow
CN(C)CCOc1ccc(-c2nc(-c3ccncc3)c(-c3ccc4c(c3)CC/C4=N\O)[nH]2)cc1: 7.1
CCn1c(-c2nonc2N)nc2ccccc21: -1.19
COc1cc(Nc2nccc(Nc3ccc4c(C)n[nH]c4c3)n2)cc(OC)c1OC: -0.92
NC(=O)c1sc(-n2cnc3ccc(C(F)(F)F)cc32)cc1OCc1ccccc1Br: 11.2
O=C(Nc1n[nH]c2cc(-c3ccc(F)cc3)ccc12)C1CC1: -0.71

Go through the items and report each one's inhibition.
1. COc1cc2c(cc1Nc1nc(Nc3ccsc3C(N)=O)c3cc[nH]c3n1)N(C(=O)CN(C)C)CCC2(C)C
2. Clc1ccc(-c2nn3ncccc3c2-c2ccnc(Nc3ccccc3)n2)cc1
3. CCCN(CCS(C)(=O)=O)Cc1ccc(-c2ccc3ncnc(Nc4ccc(OCc5cccc(F)c5)c(Cl)c4)c3c2)o1

Data returned:
1: 0.27; 2: 0.14; 3: 2.86

Batch: inhibition for all items listed.
1. O=S(=O)(CCNCc1ccc(-c2ccc3ncnc(Nc4ccc(OCc5cccc(F)c5)c(Cl)c4)c3c2)o1)c1ccccc1
2. COc1cccc(-n2ncc3c(N/N=C/c4ccc(F)cc4)ncnc32)c1

Data returned:
-0.88
6.86

Provide the reported inhibition of each entry below, same order.
1. CCN1CCC(CC(=O)Nc2n[nH]c3nnc(-c4cccc(F)c4F)cc23)CC1
2. O=C(O[C@H]1CN[C@H](C#Cc2cc3ncnc(Nc4ccc(Cc5ccccc5)cc4)c3s2)C1)N1CCOCC1
3. CCCN1CCC(c2ccc(Nc3nc(Nc4cc(F)ccc4C(N)=O)c4cc[nH]c4n3)c(OC)c2)CC1
4. Fc1ccc(-c2nn3ccccc3c2-c2ccncc2)cc1
5. CC(=O)NCc1cccc(C#Cc2cncnc2Nc2ccc(OCc3cccc(F)c3)c(Cl)c2)c1

Data returned:
1. 0.12
2. 1.74
3. 18.7
4. -1.37
5. 3.17

====

Answer each item with its documented inhibition.
tgt: Aurora kinase C (Homo sapiens) (UniProt Q9UQB9)
Sequence (Q9UQB9 whole entry): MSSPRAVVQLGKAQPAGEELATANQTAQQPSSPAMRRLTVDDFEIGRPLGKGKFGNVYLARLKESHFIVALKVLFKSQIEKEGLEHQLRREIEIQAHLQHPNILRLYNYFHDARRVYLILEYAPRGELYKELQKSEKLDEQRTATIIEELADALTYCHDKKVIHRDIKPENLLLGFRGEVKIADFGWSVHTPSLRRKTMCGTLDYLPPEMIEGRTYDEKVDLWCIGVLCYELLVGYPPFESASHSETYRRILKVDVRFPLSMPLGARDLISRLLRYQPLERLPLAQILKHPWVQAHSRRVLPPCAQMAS
particulars: at 0.1 µM
Give bare numbers, in %.

Reference set (3 entries):
CCc1nn2ncccc2c1-c1ccnc(NC2CC2)n1: 3.06
CC(=O)Nc1cccc(C#Cc2cncnc2Nc2ccc(OCc3cccc(F)c3)c(Cl)c2)c1: 2.09
CCn1cc(-c2ccnc3[nH]ccc23)c(-c2cccc(NC(=O)Nc3ccc(OCc4ccccc4)cc3)c2)n1: 0.13

Record inhibition per entry; entries follow.
1. COC(=O)c1sc(-n2cnc3cc(OC)c(OC)cc32)cc1OCc1ccccc1C(F)(F)F
2. N#Cc1c(NC(=O)CN2CCOCC2)sc2c1CCCC2
3. Nc1nc(-c2ccc(F)cc2)c(-c2ccc3ncccc3n2)s1
4. CCN1CCC(CC(=O)Nc2n[nH]c3nnc(-c4cccc(F)c4F)cc23)CC1

Data returned:
[5.23, 2.31, 2.74, 1.43]

// for each compound below, give its inhibition
1. COc1cc(N2CCN(C(C)C)CC2)ccc1Nc1nc(Nc2ccc(F)cc2C(N)=O)c2cc[nH]c2n1
2. c1cc(-c2cnn3nc(N4CCOCC4)ccc23)nc(NC2CC2)n1

Data returned:
[0.8, 7.39]

Can you give me inhibition for all of these, one by one?
1. CCCN1CCC(c2ccc(Nc3nc(Nc4cc(F)ccc4C(N)=O)c4cc[nH]c4n3)c(OC)c2)CC1
2. Clc1ccc(-c2nn3ncccc3c2-c2ccnc(Nc3ccccc3)n2)cc1
3. NS(=O)(=O)c1ccc(Nc2ncc(-c3ccccc3)o2)cc1
4. [O-][S+]1CCN(Cc2ccc(-c3ccc4ncnc(Nc5ccc(OCc6cccc(F)c6)c(Cl)c5)c4c3)o2)CC1
5. COc1cccc(-c2c[nH]c3c(N/N=C/c4ccncc4)ncnc23)c1
6. Cc1cccc2c1NC(=O)/C2=N\Nc1ccc(S(N)(=O)=O)cc1
7. Fc1ccc(-c2cc(-c3c[nH]nc3-c3ccccn3)ccn2)cc1
8. COc1cc2ncn(-c3cc(OCc4ccccc4C(F)(F)F)c(C(=O)N(C)C)s3)c2cc1OC

Data returned:
1: 0.37; 2: 1.35; 3: 6.57; 4: 0.94; 5: 13.2; 6: 2.56; 7: -0.57; 8: 3.22

====

Tested on: Proto-oncogene tyrosine-protein kinase receptor Ret (Homo sapiens), P07949 [V804L]
Sequence (P07949 whole entry V804L): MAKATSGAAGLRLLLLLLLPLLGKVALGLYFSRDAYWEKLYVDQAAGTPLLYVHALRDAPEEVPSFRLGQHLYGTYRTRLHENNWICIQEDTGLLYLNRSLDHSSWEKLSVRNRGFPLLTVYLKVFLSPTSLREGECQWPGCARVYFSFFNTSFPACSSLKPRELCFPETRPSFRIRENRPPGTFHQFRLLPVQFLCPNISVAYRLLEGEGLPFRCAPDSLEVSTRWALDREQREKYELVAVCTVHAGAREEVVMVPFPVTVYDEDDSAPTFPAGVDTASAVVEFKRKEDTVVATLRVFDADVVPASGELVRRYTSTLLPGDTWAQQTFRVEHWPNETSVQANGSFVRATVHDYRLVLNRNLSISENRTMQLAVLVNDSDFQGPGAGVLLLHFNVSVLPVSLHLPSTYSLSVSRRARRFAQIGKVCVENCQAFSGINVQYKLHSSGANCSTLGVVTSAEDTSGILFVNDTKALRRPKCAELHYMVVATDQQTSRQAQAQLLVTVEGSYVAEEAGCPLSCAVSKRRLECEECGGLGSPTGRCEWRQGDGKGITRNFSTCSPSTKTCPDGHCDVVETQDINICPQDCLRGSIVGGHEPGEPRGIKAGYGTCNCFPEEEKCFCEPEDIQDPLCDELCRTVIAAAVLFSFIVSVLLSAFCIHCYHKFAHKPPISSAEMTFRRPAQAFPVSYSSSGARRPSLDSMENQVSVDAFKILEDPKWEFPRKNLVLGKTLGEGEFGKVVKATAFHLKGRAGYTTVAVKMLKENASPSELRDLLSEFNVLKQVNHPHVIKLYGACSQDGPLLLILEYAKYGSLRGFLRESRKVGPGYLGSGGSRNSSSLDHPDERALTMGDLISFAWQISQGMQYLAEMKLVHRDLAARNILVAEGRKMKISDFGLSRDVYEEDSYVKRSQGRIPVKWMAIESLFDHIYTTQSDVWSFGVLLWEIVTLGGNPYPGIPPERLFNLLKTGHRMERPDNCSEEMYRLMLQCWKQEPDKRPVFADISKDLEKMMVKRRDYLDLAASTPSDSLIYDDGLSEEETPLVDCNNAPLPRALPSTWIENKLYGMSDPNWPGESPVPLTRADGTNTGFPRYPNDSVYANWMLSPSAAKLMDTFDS
particulars: at 1 µM
readout.type: inhibition (%)
Give bare numbers, in %.

In the examples that follow, each entry is paired with its recorded inhibition.
Cc1cccc(Nc2ncc(-c3ccccc3)o2)c1: 4.53
Cc1cccc2c1NC(=O)/C2=N\Nc1ccc(S(N)(=O)=O)cc1: 7.11

// batch mode: one inhibition value per listed entry
1. CNC(=O)c1cccc(C#Cc2cncnc2Nc2ccc(OCc3cccc(F)c3)c(Cl)c2)c1
2. CCN(CC)S(=O)(=O)c1ccc(OC)c(Nc2ncc(-c3ccccc3)o2)c1
3. COc1ccc(-c2oc3ncnc(N)c3c2-c2ccc(NC(=O)Nc3cc(C(F)(F)F)ccc3F)cc2)cc1
4. CN1CCC(n2cnc(-c3ccc(F)cc3)c2-c2ccnc(N)n2)CC1
5. CCc1nn2ncccc2c1-c1ccnc(NC2CC2)n1
6. CCOc1ccc2c(-c3ccnc(Nc4cccc(C(F)(F)F)c4)n3)cnn2n1
7. CC(=O)Nc1cccc(C#Cc2cncnc2Nc2ccc(OCc3cccc(F)c3)c(Cl)c2)c1
8. CCCN1CCC(c2ccc(Nc3nc(Nc4cc(F)ccc4C(N)=O)c4cc[nH]c4n3)c(OC)c2)CC1

Data returned:
12.6
21.3
87.8
13.3
2.94
6.22
9.51
51.4

Below are 5 molecules. Give each one its inhibition.
1. Fc1cccc(COc2ccc(Nc3ncnc4sc(-c5ccco5)cc34)cc2Cl)c1
2. CN1CCC(n2cnc(-c3ccc(F)cc3)c2-c2ccnc(Nc3ccccc3)n2)CC1
3. N#Cc1c(NC(=O)CN2CCOCC2)sc2c1CCCC2
4. COc1cc(/C=N/Nc2ncnc3[nH]ncc23)ccc1O
5. CCn1c(-c2nonc2N)nc2ccccc21

Data returned:
11.1
7.13
8.77
68.6
0.52

For each entry beneath this line, provide reported inhibition.
1. COc1cc(Nc2nccc(Nc3ccc4c(C)n[nH]c4c3)n2)cc(OC)c1OC
2. CCNC(=O)O[C@H]1CN[C@H](C#Cc2cc3ncnc(Nc4ccc(OCc5cccc(F)c5)c(Cl)c4)c3s2)C1
3. O=S(=O)(CCNCc1ccc(-c2ccc3ncnc(Nc4ccc(OCc5cccc(F)c5)c(Cl)c4)c3c2)o1)c1ccccc1
4. [O-][S+]1CCN(Cc2ccc(-c3ccc4ncnc(Nc5ccc(OCc6cccc(F)c6)c(Cl)c5)c4c3)o2)CC1

Data returned:
1. 68.7
2. 0.84
3. 9.24
4. 16.5

Give me inhibition for each of these molecules, listed below.
1. COc1ccc(-c2cc(-c3c[nH]nc3-c3ccccn3)ccn2)cc1
2. NS(=O)(=O)c1ccc(N/N=C2\C(=O)Nc3ccc4ncccc4c32)cc1

Data returned:
5.73
82.7

Would you be so kind as to report inhibition for each listed record?
1. CN(C)CCOc1ccc(-c2nc(-c3ccncc3)c(-c3ccc4c(c3)CC/C4=N\O)[nH]2)cc1
2. CCn1c(-c2nonc2N)nc2c(C#CC(C)(C)O)nc(OC[C@H](N)c3ccccc3)cc21
3. FC(F)(F)c1cccc(-c2nn3ncccc3c2-c2ccnc(Nc3ccc4c(c3)OCCO4)n2)c1
4. CCn1c(-c2nonc2N)nc2c(C#CC(C)(C)O)ncc(OC3CCNCC3)c21
5. COc1ccc2[nH]c3c4[nH]c5ccc(OC)cc5c4c4c(c3c2c1)C(=O)NC4=O

Data returned:
1: 6.45; 2: 6.67; 3: 2.86; 4: 4.05; 5: 82.1

List reported inhibition for each of these molecules:
1. CCn1cc(-c2ccnc3[nH]ccc23)c(-c2cccc(NC(=O)Nc3ccc(OCc4ccccc4)cc3)c2)n1
2. CNC(=O)c1cncc(/C=C/c2ccccc2Cl)c1

Data returned:
[0.01, 10]

Batch: inhibition for all items listed.
1. Nc1nc(-c2cccc(Cl)c2)c(-c2ccc3ncccc3n2)s1
2. CS(=O)(=O)CCNCc1ccc(-c2ccc3ncnc(Nc4ccc(OCc5ccccc5)c(C(F)(F)F)c4)c3c2)o1
3. c1ccc(COc2ccc(Nc3ncnc4ccc(-c5ccco5)cc34)cc2)cc1
4. COc1ccc(-c2cc3c(N)ncnc3o2)cc1

Data returned:
14.1
4.42
2.59
2.98

Kindly give each listed record's inhibition.
1. COc1ccc2c(-c3ccnc(Nc4cccc(OC(F)(F)F)c4)n3)cnn2n1
2. Fc1ccc(-c2nn3ncccc3c2-c2ccnc(Nc3ccc4c(c3)OCCO4)n2)cc1
3. COC(=O)Nc1nc2ccc(Oc3ccc(NC(=O)Nc4cccc(Cl)c4)cc3)cc2[nH]1

Data returned:
1: 12.5; 2: 4.6; 3: 54.8
